# Method: protein stability index of a GFP-peptide fusion (yeast GPS) (PSI 1-4); higher = more stable; sorted into four equal gates, so the index is relative within each strain
# Measurement parameters: pdr5∆
Assign protein stability index to each entry below.
One number for each entry.

Some solved cases for reference:
Seq: IKFFWNNTHVGRQFCNR [YLR018C/POM34]
Observed value: 1.68
--
Seq: YQLNDRNVTKGDIVRML [SMC3]
Observed value: 3.03

Q: Provide one value: measured protein stability index of QIAFDLVSSASQQLLEI [RPN2]
Ans: 2.17

###

Assign protein stability index to each entry below.
# Method: protein stability index of a GFP-peptide fusion (yeast GPS) (PSI 1-4); higher = more stable; sorted into four equal gates, so the index is relative within each strain
# Measurement parameters: san1∆
Numbers only.

Some solved cases for reference:
Seq: APPLENENSNCLLSIPK [YML103C/NUP188]
protein stability index: 1.65
--
Seq: TNKGPLAQIWLASNMSN [MCD1]
protein stability index: 1.26
--
Seq: MNVTPLDELQWKSPEWI [MED6]
protein stability index: 3.19
--
Seq: VAFVCSPISDSRDELIR [RPN10]
protein stability index: 1.67
--
Seq: SSFNFNKNLPFVWLSSE [SWI1]
protein stability index: 1.84
--
Seq: GKRQLMKAVGEYMKRHP [SEC65]
protein stability index: 2.94
--
Seq: AMSLYHSPFPFNRTKGK [PRP8]
protein stability index: 1.65
--
Seq: EDDESLGHKELKVRKGH [RPB2]
protein stability index: 2.45
--
Seq: TVVTVVSTAKFSGKYLK [RPL22A]
protein stability index: 3.38
--
Seq: IGIAGAHRVRDLMDEEL [SKI6]
protein stability index: 2.94

Field: protein stability index. Fill in for each record below.
1. ISGNPPLLYNSLCTVWK [SRB5]
2. NSQERVQDLGSAISVTN [SIR2]
3. QRTAQDRVQQDSEDEDS [YML031W/NDC1]
4. EAQDEASLQQQQQQDLQ [SNF6]
5. DPASFYLFDEIDAALDK [SMC3]
6. EGSTIRYLAVTLQDIGF [YMR129W/POM152]
7. PKNSSSPVQIAFNRFMA [SSN8]

Ans:
[2.34, 3.01, 3.24, 3.12, 2.61, 2.52, 1.52]

###

# Method: protein stability index of a GFP-peptide fusion (yeast GPS) (PSI 1-4); higher = more stable; sorted into four equal gates, so the index is relative within each strain
# Measurement parameters: pdr5∆
Readout type: protein stability index
One number for each entry.

Field: protein stability index. Fill in for each record below.
1. VGEKLVVVVLEEPSASI [SIR3]
2. EIDTILSTLRMEADPSL [RPN9]
3. FNVDDVLKFTFTGEKPI [MED8]
4. FENCYLEGNDIHALAAK [FAS1]

Ans:
2.94
3.04
3.02
3.06

###

# Method: protein stability index of a GFP-peptide fusion (yeast GPS) (PSI 1-4); higher = more stable; sorted into four equal gates, so the index is relative within each strain
# Measurement parameters: doa10∆
Readout type: protein stability index
One number for each entry.

Some solved cases for reference:
Seq: VGCIFAELIGLQPIFKG [SSN3]
protein stability index: 3.02

Seq: GTWSAKEAVFKSLGVKS [FAS2]
protein stability index: 2.94

Seq: KYISAELYAQLRENGLV [SNU114]
protein stability index: 2.91

Field: protein stability index. Fill in for each record below.
1. NEAEQVYLSLLDKDSSQ [RPN6]
2. KLSEIILNINNSTSKNT [SWI1]
3. YSIALSNVAAIFKGIGG [GAL11]
4. VEYVDPTVNRVPNYEVS [RPN7]
5. SLLESGSEILGDLKLQV [RPO21]

Ans:
[3.03, 2.96, 1.52, 3.37, 3.59]

Q: Provide one value: measured protein stability index of LSGVSNSMDMVDGMAKV [RGR1]
Ans: 3.48
